# Test system: Survivin
# protocol_notes: Effect on survivin expression (Table 9)
# Assay type: cell-based
# condition_description: 25 uM
Reported inhibition at 25 µM by item:
# value in %; strip the unit string

Use the examples below as a reference point.
Just so you know, measured inhibition at 25 µM for CN(C)c1ccccc1CN1C[C@@H]2N(C(=O)CN(C)N2C(=O)NCc2ccccc2)[C@@H](Cc2ccc(O)cc2)C1=O came out at 92

Just so you know, measured inhibition at 25 µM for CN(C)c1cc(F)c(F)cc1CN1C[C@@H]2N(C(=O)CN(C)N2C(=O)NCc2ccccc2)[C@@H](Cc2ccc(O)cc2)C1=O came out at 91

Just so you know, measured inhibition at 25 µM for COc1cccc(CN2C[C@@H]3N(C(=O)CN(C)N3C(=O)NCc3ccccc3)[C@@H](Cc3ccc(O)cc3)C2=O)c1N(C)C came out at 92

Just so you know, measured inhibition at 25 µM for CN1CC(=O)N2[C@@H](Cc3ccc(O)cc3)C(=O)N(Cc3c(Cl)cc(Cl)c4cccnc34)C[C@@]2(C)N1C(=O)NCc1ccccc1 came out at 58

Just so you know, measured inhibition at 25 µM for Cc1cccc(N(C)C)c1CN1C[C@@H]2N(C(=O)CN(C)N2C(=O)NCc2ccccc2)[C@@H](Cc2ccc(O)cc2)C1=O came out at 4

Continuing:
Just so you know, measured inhibition at 25 µM for CN1CC(=O)N2[C@@H](CN(Cc3ccc(F)cc3C(F)(F)F)C(=O)[C@@H]2Cc2ccc(O)cc2)N1C(=O)NCc1ccccc1 came out at 80

Just so you know, measured inhibition at 25 µM for CC(C)N(C)c1cccc(CN2C[C@@H]3N(C(=O)CN(C)N3C(=O)NCc3ccccc3)[C@@H](Cc3ccc(O)cc3)C2=O)c1 came out at 91

Just so you know, measured inhibition at 25 µM for CCN(CC)c1cccc(CN2C[C@@H]3N(C(=O)CN(C)N3C(=O)NCc3ccccc3)[C@@H](Cc3ccc(O)cc3)C2=O)c1 came out at 77

Just so you know, measured inhibition at 25 µM for CN(C)c1cc(Cl)ccc1CN1C[C@@H]2N(C(=O)CN(C)N2C(=O)NCc2ccccc2)[C@@H](Cc2ccc(O)cc2)C1=O came out at 89
